Origin of measurements: ChEMBL document CHEMBL1154198

Test system: Plasmodium falciparum
Test: ST_JUDE: Plasmodium falciparum 3D7 EC50 (uM) as measured by SYBR green dye
Type: functional, organism-based
Parameter EC50: see the listing below.
readout.type: EC50 (nM)

molecule	readout.type	units.symbol	inequality.symbol	reported.measurement
CC(=O)NC(c1ccc(C(C)C)cc1)c1ccc2cccnc2c1O (stereo unspecified)	EC50	nM	=	6600
Cc1cccc(NC(=O)c2cc3ccccc3cc2O)c1	EC50	nM	=	1150
O=S(=O)(/N=C(\Nc1ccc(Br)cc1)c1ccccc1)c1ccccc1	EC50	nM	>	15000
CCN(CC)CCn1c(=N)n(CC(O)c2ccc(Cl)c(Cl)c2)c2ccccc21 (stereo unspecified)	EC50	nM	=	907
COc1ccc(OC)c(C2C(C(=O)OC(C)C)=C(C)N=c3s/c(=C\c4ccc(O)cc4)c(=O)n32)c1 (stereo unspecified)	EC50	nM	>	15000
CC(O)(c1ccc(Cl)cc1)C(CN1CCCCC1)c1ccccc1 (stereo unspecified)	EC50	nM	=	916
O=C1C(Nc2cccc(F)c2)=C(N2CCCCC2)C(=O)c2ccccc21	EC50	nM	=	261
CCCCC(O)(c1ccc(Cl)cc1)C(CN1CCOCC1)c1ccc(Cl)cc1 (stereo unspecified)	EC50	nM	=	4010
O=C(Nc1nc(-c2ccccn2)cs1)c1ccccc1Br	EC50	nM	=	4530
OC(CNC1CCCCC1)Cn1c2ccc(Cl)cc2c2cc(Cl)ccc21 (stereo unspecified)	EC50	nM	=	388
CC(=O)N(C)C1=C(N2CCOCC2)C(=O)c2ccccc2C1=O	EC50	nM	=	2720

* * *

System: Leishmania major
Assay: ST_JUDE: Cytotoxicity using Alamar Blue to measure viability of Leishmania major
Type: functional, organism-based
pEC50: −log10 of the molar value.
readout.type: pEC50

compound	reported.measurement
CSC(=S)N/N=C(\c1ccccc1)c1ccccn1	< 4.74
CCOC(=O)c1cccc(NC(=O)CC2C(=O)N(c3ccc(F)cc3)C(=O)N2CCC(C)C)c1 (stereo not given)	< 4.73
CCCO/C(O)=C1\C(C)=NC2=C(C(=O)CC(c3ccc(OC)c(OC)c3)C2)C1c1ccccc1F (stereo not given)	< 4.75
CCN1/C(=C/c2cccc[n+]2C)C=Cc2cc(C)ccc21	6.97
CCOc1ccc(N(C(C)=O)C2=C(N3CCOCC3)C(=O)c3ccccc3C2=O)cc1	< 4.80
CCCO/C(O)=C1\C(C)=NC2=C(C(=O)CC(c3ccc(OC)c(OC)c3)C2)C1c1cccc(Cl)c1 (stereo not given)	< 4.79
COc1ccc(O)c(CN2CCN(c3cc(C)ccc3C)CC2)c1	< 4.82
O=[N+]([O-])c1cc(CN2CCN(c3cccc(C(F)(F)F)c3)CC2)c2cccnc2c1O	< 4.87
CC(C)(C)c1ccc(S(=O)(=O)NC2=C/C(=N\c3ccc(O)cc3)C(=O)c3ccccc32)cc1	< 4.85
Oc1ccc(C2NCc3ccccc3-n3cccc32)cc1Cl (stereo not given)	< 4.71

* * *

Parameter pEC50: see the listing below.
Test: ST_JUDE: Cytotoxicity using luciferase to measure ATP as an indicator of the viability of human Burkitt''s lymphoma lymphoblast cells (Raji)
Format: toxicity, cell-based
pEC50: −log10 of the molar value.
readout.type: pEC50

molecule	readout.type	inequality.symbol	reported.measurement
C[N+](C)(C)c1nc(N2CCOCC2)nc(N(c2ccccc2)c2ccccc2)n1	pEC50	=	4.97
CC(C)(C)c1cc(/N=N/C(=O)c2ccncc2)cc(C(C)(C)C)c1O	pEC50	=	6.17
CSC(=S)N/N=C(\c1ccccc1)c1ccccn1	pEC50	=	7.48
COc1ccc(Nc2cc(C)c3ccc(O)cc3n2)cc1	pEC50	<	4.32
Cc1cccc(CN2CCC(CNC(=S)Nc3ccc4nc(N5CCN(C)CC5)cc(C)c4c3)CC2)c1	pEC50	=	4.65
CN(C)c1cc[n+](CC(=O)c2ccc(Br)cc2)cc1	pEC50	<	4.51
CCO/C(O)=C1\C(C)=NC2=C(C(=O)CC(c3ccc(OC)c(OC)c3)C2)C1c1ccccc1C (stereo not given)	pEC50	<	4.37
CO/C(O)=C1\C(C)=NC2=C(C(=O)CC(c3ccc(OC)c(OC)c3)C2)C1c1ccccc1F (stereo not given)	pEC50	<	4.35
CC(C)NCC(O)Cn1c2ccc(Cl)cc2c2cc(Cl)ccc21 (stereo not given)	pEC50	=	4.68
COc1ccc(C2CC3=NC(C)=C(C(=O)OC(C)C)C(c4ccccc4OC)C3=C(O)C2)cc1OC (stereo not given)	pEC50	<	4.35
